Below is a list of entries, each paired with its recorded melting point value.
Structures can show the parent of a compound that is named as a salt.

Reported melting point, molecule OC(CN1CCN(CCc2ccccc2)CC1)c1cccnc1 (stereo not shown) (as salt: hydrobromid) [LK-980, trihydrobromide] : ____
178 to 181 °C

Reported melting point, molecule Fc1ccc(CCN2CCN(CCc3ccncc3)CC2)cc1F (as salt: hydrobromid) [LK-9131, trihydrobromide] : ____
256 to 259 °C

Reported melting point, molecule c1ccc(CCN2CCN(CCc3cccnc3)CC2)cc1 (as salt: hydrobromid) [LK-9100, trihydrobromide] : ____
219 to 222 °C

Reported melting point, molecule OC(CN1CCN(Cc2ccc(F)cc2)CC1)c1cccnc1 (stereo not shown) (as salt: hydrobromid) [LK-9148, trihydrobromide] : ____
220 to 223 °C
